target: α2A receptor (Homo sapiens); construct: host or cells: LM(tk-) cells, line L-α2A; experiment: Competition binding, [3H]rauwolscine, human α2A receptor; settings: [3H]rauwolscine, LM(tk-) cell line L-α2A; SEM and n in lines below; read-out: pKi alpha-2 2a (converted)
Sequence (P08913 whole entry): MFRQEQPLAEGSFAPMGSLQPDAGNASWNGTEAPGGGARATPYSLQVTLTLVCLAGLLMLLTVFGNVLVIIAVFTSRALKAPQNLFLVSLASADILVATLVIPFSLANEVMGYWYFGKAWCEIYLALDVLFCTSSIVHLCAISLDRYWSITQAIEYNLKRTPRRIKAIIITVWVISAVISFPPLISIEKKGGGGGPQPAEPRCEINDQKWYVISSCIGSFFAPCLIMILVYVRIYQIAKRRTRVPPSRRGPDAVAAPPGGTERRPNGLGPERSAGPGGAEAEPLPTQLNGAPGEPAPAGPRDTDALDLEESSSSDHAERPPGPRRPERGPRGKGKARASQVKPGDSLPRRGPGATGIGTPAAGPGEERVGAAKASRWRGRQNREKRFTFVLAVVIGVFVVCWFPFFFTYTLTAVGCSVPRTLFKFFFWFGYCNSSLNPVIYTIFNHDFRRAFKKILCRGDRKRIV
Where a name gives a salt, the structure may show the parent alone.
Examples of compounds with documented Ki follow.
Answer with the value and then the unit.

See these solved cases before continuing.
compound: COC(=O)C1=C(C)NC(c2ccoc2)=C(C(=O)NCCCN2CCC(c3ccccc3)(c3ccccc3)CC2)C1c1ccc([N+](=O)[O-])cc1 (stereo not drawn) [Example 43, hydrochloride salt]
measurement target: α2A receptor (Homo sapiens)
metric name: Ki
result: 661 nM
//
compound: COC(=O)C1=C(C)NC(C)=C(C(=O)NCCCN2CCC(c3ccccc3)(c3ccccc3)CC2)C1c1cccnc1 (stereo not drawn) [Example 14]
measurement target: α2A receptor (Homo sapiens)
metric name: Ki
result: 2880 nM
//
compound: CCC1=C(C(=O)NCCCN2CCC(c3ccccc3)CC2)C(c2ccc([N+](=O)[O-])cc2)C(C(=O)OC)=C(C)N1 (stereo not drawn) [Example 74, hydrochloride hydrate]
measurement target: α2A receptor (Homo sapiens)
metric name: Ki
result: 58.9 nM
//
compound: COC(=O)C1=C(C)NC(C)=C(C(=O)NCCCN2CCC(c3ccccc3)CC2)C1c1ccc([N+](=O)[O-])cc1 (single isomer, unassigned; (+)) [(+)-45, hydrochloride hemihydrate]
measurement target: α2A receptor (Homo sapiens)
metric name: Ki
result: 240 nM
//
compound: CNC(=O)C1=C(C)NC(C)=C(C(=O)NCCCN2CCC(c3ccccc3)CC2)C1c1ccc([N+](=O)[O-])cc1 (stereo not drawn) [Example 56, hydrochloride hemihydrate]
measurement target: α2A receptor (Homo sapiens)
metric name: Ki
result: 269 nM

Recorded Ki for COC(=O)C1=C(C)NC(C)=C(C(=O)NCCCN2CCC(c3ccccc3)CC2)C1c1ccc(Cl)c([N+](=O)[O-])c1 (stereo not drawn) [Example 17] , please?
347 nM

Taken from patent US6608086B2.
